# assayed-system: HeLa cell extract proteins (Homo sapiens)
# Construct: endogenous in cells; host or cells: HeLa cell extract
# Sequence (P04083 whole entry): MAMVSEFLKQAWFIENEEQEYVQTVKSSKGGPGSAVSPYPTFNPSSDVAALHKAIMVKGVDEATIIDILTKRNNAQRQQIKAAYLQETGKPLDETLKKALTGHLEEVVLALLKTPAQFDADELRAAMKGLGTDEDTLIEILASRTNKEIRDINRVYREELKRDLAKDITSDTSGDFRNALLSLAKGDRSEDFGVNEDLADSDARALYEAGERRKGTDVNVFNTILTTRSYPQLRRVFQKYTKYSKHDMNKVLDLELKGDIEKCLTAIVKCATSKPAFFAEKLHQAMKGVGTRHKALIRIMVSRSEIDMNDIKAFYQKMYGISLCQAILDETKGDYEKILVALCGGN
# Assay type: binding
# condition-notes: protein ANXA1; HeLa
// values below are reported fold changes relative to vehicle control
// keep it numeric: no unit symbol after the value

Example cases with answers are listed next.
compound: Nc1nc2cccc(-c3ccccc3)c2n1Cc1ccc(Cl)c(Cl)c1
fold changes relative to vehicle control: 0.86
//
compound: CCCCCCOc1ccc(Cc2cnc(N)nc2N)cc1
fold changes relative to vehicle control: 1.21
//
compound: Nc1nc2c(c(=O)[nH]1)N(C=O)C(CNc1ccc(C(=O)N[C@@H](CCC(=O)O)C(=O)O)cc1)CN2 (stereo partly drawn)
fold changes relative to vehicle control: 0.81

Field fold changes relative to vehicle control (HeLa cell extract proteins (Homo sapiens)), entry NCCCNc1ccc(C(=O)NC(CCC(=O)O)C(=O)O)cc1 (stereo not drawn) : 0.87

Entry CCCCCCOc1cccc(Cc2cnc(N)nc2N)c1 , HeLa cell extract proteins (Homo sapiens) data, fold changes relative to vehicle control value: 1.86

Hey, HeLa cell extract proteins (Homo sapiens) data for NCCOCCOCC(=O)Nc1nc2ncc(CNc3ccc(C(=O)NC(CCC(=O)O)C(=O)O)cc3)nc2c(=O)[nH]1 (stereo not drawn) : fold changes relative to vehicle control came out at 1.24
